Target: human calcium receptor (Homo sapiens)
Construct: expressed in transfected cells
Sequence (P41180 20-1078): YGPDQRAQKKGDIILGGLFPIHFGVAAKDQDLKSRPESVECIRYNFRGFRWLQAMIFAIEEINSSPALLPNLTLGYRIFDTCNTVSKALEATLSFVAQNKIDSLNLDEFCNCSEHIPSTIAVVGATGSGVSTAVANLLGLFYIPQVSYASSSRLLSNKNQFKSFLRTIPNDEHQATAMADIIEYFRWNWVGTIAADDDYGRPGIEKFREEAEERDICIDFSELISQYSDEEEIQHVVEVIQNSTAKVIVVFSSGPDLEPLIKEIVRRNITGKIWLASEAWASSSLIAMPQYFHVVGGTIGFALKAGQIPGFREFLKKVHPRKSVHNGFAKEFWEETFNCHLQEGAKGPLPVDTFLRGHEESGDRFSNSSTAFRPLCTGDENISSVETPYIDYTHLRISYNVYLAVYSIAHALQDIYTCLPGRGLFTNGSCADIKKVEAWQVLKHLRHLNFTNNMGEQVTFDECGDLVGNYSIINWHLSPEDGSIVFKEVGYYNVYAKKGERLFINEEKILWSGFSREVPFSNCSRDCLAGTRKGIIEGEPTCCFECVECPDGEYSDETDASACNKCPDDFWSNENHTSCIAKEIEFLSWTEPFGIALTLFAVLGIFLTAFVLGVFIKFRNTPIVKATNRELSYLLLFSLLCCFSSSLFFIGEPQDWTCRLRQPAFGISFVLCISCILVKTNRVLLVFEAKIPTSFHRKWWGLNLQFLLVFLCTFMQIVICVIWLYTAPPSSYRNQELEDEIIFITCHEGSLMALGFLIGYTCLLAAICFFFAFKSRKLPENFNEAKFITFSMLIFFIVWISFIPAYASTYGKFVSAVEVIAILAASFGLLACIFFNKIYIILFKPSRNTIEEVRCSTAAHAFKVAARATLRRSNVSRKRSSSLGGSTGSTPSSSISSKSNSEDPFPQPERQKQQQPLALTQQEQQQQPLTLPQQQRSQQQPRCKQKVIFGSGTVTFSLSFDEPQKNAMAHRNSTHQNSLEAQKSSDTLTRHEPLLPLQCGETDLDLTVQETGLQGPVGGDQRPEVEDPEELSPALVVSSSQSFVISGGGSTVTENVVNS
Assay: Calcium Receptor Inhibitor Assay
Format: cell-based
Details: HEK 293 4.0–7 cells stably expressing the human calcium receptor; fluo-3; read-out: IC50 for blocking increases of intracellular Ca2+ elicited by extracellular Ca2+
Structures can show the parent of a compound that is named as a salt.
Recorded endpoint: IC50

COc1ccc(CC(C)(C)NCC(O)COc2ccc(C)cc2)cc1 (stereo not shown) [Compound 135, Hydrochloride] :: < 1 µM
COc1ccc(CC(C)(C)NCCCCOc2ccccc2)cc1 :: > 50 µM
COc1ccc(CC(C)(C)NCC(O)COc2ccc(C(F)(F)F)cc2)cc1 (stereo not shown) [Compound 51, Hydrochloride] :: < 1 µM

The record that follows has no IC50 shown yet.
Consider COc1ccc(CC(C)(C)NCC(O)COc2ccccc2C(F)(F)F)cc1 (stereo not shown) [Compound 47, Hydrochloride] . Its measured IC50 is < 1 µM
